Entry source: paper PMC10397247

# Experimental Target: T1, 4H3590-AA
# T1 chain: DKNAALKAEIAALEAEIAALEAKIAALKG
# Measurement Description: two-hybrid library CCmax;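 further: natural log of median RNA to DNA barcode read ratio; higher means stronger binding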
# Condition Info: mean of both orientations
Reported Metric: interaction score

Worked cases, answers included:
> print(dat)
                                     binder    reported.metric  quantitative.result
1  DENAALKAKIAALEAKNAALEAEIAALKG [4H1842-AA]  interaction score               -0.391
2  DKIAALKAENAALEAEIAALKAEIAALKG [4H2698-AA]  interaction score                -0.95
3  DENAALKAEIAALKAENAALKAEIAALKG [4H1626-AA]  interaction score                -1.51
4  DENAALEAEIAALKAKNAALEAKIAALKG [4H1142-AA]  interaction score                 0.23
5  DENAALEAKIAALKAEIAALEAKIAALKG [4H1350-AA]  interaction score                 2.09

[I] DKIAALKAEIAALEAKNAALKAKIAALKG [4H2622-AA]
[II] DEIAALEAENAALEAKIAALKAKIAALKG [4H174-AA]
Look at I and II . Which one has the lower recorded interaction score number? Use the label to indicate which entry you chose.
I
(I: 0.684, II: 2.2)
